The reported numbers originate from patent US20160108414A1.

Test system: recombinant Arabidopsis ENOX1
Experiment: NADH oxidase activity of IEF-purified recombinant Arabidopsis ENOX1
Assay type: biochemical
Details: concentrations of Table 5
Metric Name: Effect on ENOX1 activity eluted from the IEF gel

[
  {
    "Compound": "CC[C@@H](C)C(=O)O[C@H]1C(=O)O[C@@H]2C[C@H]3C(C)=CC(=O)[C@@H](O)[C@]3(C)[C@H]3[C@@H](O)[C@H](O)[C@]4(C)OC[C@]32[C@@H]14 [Simalikalactone D]",
    "Measured Result": "inhibited"
  },
  {
    "Compound": "CCS(=O)(=O)c1nc2ccccn2c1S(=O)(=O)NC(=O)Nc1nc(OC)cc(OC)n1 [Sulfonsulfuron]",
    "Measured Result": "inhibited"
  },
  {
    "Compound": "CC(=O)Nc1cc(NS(=O)(=O)C(F)(F)F)c(C)cc1C [Mefluidide]",
    "Measured Result": "inhibited"
  }
]
